Origin of the recorded values: patent US20220135687A1

Target: cynomolgus PD-L1 Fc-fusion protein (cynomolgus, UniProt G7PSE7 19-238)
Sequence (G7PSE7 entry or part of it limits assumed): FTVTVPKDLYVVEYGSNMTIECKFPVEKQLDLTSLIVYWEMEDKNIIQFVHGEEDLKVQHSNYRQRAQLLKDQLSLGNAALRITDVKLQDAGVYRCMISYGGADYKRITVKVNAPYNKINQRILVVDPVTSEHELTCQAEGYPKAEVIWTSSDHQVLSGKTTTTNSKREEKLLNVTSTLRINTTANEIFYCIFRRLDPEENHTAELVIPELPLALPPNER
Test: SPR, cyno PD-L1-Fc immobilised, antibody analyte
result_type: kon (M⁻¹ s⁻¹)
API: value field is a number in M⁻¹ s⁻¹; no unit string.

// returns reported kon for input 29A8_VH5-VL1.M1 (antibody, human IgG1, kappa, N297A, V domains shown, Humanized, hIgG1 effector-less Fc, kappa; see recheck on K24R in the .M1 light chain) VH: EVQLQESGPGLVKPSETLSLTCTVSGYSITSDFAWDWIRQPPGKGLEWIGHIRFSGTTSYNPSLKSRVTISRDTSKNQFSLKLSSVTAADTAVYYCARSTLITKGFFDYWGQGTLVTVSS VL: DIQMTQSPSSLSASVGDRVTITCRASQDVSPAVAWYQQKPGKAPKLLIYWASTRHTGVPSRFSGSGSGTDFTLTISSLQPEDFATYYCQQHYSTPWTFGQGTKVEIKR
200000

Quick one: kon for 53C1_chimeric (antibody, human IgG1, kappa, N297A, V domains shown, Human IgG1 with effector-less Fc mutations, human kappa; also called chimeric 53C1F3D4) VH: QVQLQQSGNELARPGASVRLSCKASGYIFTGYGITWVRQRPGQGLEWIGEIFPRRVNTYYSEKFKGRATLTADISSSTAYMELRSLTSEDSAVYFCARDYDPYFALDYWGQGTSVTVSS VL: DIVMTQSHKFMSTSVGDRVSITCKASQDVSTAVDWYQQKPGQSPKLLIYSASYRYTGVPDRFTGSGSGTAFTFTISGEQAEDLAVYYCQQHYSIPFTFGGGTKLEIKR ?
87000

Could you share which kon value was measured for 29A8_chimeric (antibody, human IgG1, kappa, N297A, V domains shown, Human IgG1 with effector-less Fc mutations, human kappa; also called chimeric 29A8H8C7) VH: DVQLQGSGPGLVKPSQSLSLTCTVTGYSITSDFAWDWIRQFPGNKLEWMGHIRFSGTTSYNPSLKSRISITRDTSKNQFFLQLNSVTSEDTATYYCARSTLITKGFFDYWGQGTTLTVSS VL: DIVMTQSHKFMSTSVGGRVSITCKASQDVSPAVAWYQQKPGQSPKLLIYWASTRHTGVPDRFTGSGSGTDFTLTISSVQTEDLALYYCQQHYSTPWTFGGGTKLEIKR ?
150000

What does the data say about its kon? Entry: 53C1_VH3-VL1.M1 (antibody, human IgG1, kappa, N297A, V domains shown, Humanized, hIgG1 effector-less Fc, kappa; see recheck on K24R in the .M1 light chain) VH: EVQLVQSGAEVKKPGASVKLSCKASGYIFTGYGITWVRQAPGQGLEWIGEIFPRRVNTYYSEKFKGRATLTADTSTSTAYMELRSLRSDDTAVYFCARDYDPYFALDYWGQGTTVTVSS VL: DIQMTQSPSSLSASVGDRVTITCRASQDVSTAVDWYQQKPGKAPKLLIYSASYRYTGVPDRFSGSGSGTDFTFTISSLQPEDIATYYCQQHYSIPFTFGQGTKLEIKR
95000
